These measurements were taken from patent US12528783B2.

Biological target: PqsR (Pseudomonas aeruginosa, UniProt Q9I4X0)
Sequence (Q9I4X0 whole entry): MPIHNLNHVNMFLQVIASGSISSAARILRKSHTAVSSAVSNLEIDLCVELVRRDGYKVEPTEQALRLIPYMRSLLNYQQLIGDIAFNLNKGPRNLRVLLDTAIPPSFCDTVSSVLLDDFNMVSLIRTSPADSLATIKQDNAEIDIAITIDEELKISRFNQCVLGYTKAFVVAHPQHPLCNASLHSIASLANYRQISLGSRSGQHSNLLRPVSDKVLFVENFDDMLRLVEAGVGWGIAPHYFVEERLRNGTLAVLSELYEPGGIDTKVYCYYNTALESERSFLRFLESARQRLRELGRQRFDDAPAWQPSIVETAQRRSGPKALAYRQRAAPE
Test: PqsR inverse agonistic activity, reporter gene assay in E. coli
property label: IC50

Use the examples below as a reference point.
mol smiles | property label | experimental value
Fc1ccc(Nc2ccc3[nH]c(CSc4ccnc(C(F)(F)F)c4)nc3c2)c(F)c1 | IC50 | ≤ 50 nM
NC(=O)c1cccc(Nc2ccc3[nH]c(CSc4ccnc(C(F)(F)F)c4)nc3c2)c1 | IC50 | 251 to 1000 nM
FC(F)(F)c1cc(NCc2cn(-c3cccc(Nc4ccccc4)c3)nn2)ccn1 | IC50 | ≤ 50 nM
Fc1cccc(Nc2ccc3[nH]c(CSc4ccnc(C(F)(F)F)c4)nc3c2)c1F | IC50 | 51 to 250 nM
FC(F)(F)c1cc(SCc2nc3cc(NC4CCCCC4)ccc3[nH]2)ccn1 | IC50 | 51 to 250 nM

IN: Supply recorded IC50 for "Nc1cc(SCc2nc3cc(Nc4ccccc4)ccc3[nH]2)nc(C(F)(F)F)n1" here.
OUT: ≤ 50 nM

IN: Supply recorded IC50 for "FC(F)c1cccc(Nc2ccc3[nH]c(CSc4ccnc(C(F)(F)F)c4)nc3c2)c1" here.
OUT: ≤ 50 nM

IN: Supply recorded IC50 for "Cc1cc(Nc2ccccc2)cc2nc(CSc3ccnc(C(F)(F)F)c3)[nH]c12" here.
OUT: ≤ 50 nM

IN: Supply recorded IC50 for "COc1ccc(Nc2ccc3[nH]c(CSc4ccnc(C(F)(F)F)c4)nc3c2)cc1" here.
OUT: 51 to 250 nM

IN: Supply recorded IC50 for "Fc1ccccc1Nc1ccc(-n2cc(CNc3ccnc(C(F)(F)F)c3)nn2)cc1" here.
OUT: ≤ 50 nM

IN: Supply recorded IC50 for "FC(F)(F)c1cc(SCc2nc3cc(Cc4ccccc4)ccc3[nH]2)ccn1" here.
OUT: ≤ 50 nM

IN: Supply recorded IC50 for "FC(F)(F)c1cc(SCc2nc3ccc(Nc4ccccc4)cc3o2)ccn1" here.
OUT: 51 to 250 nM

====

Tested on: P. aeruginosa pyocyanin production
Assay: Pyocyanin assay
Type: cell-based
Settings: Pseudomonas aeruginosa, PA14, 16 h, read-out: IC50-value towards pyocyanin production, PA14 in PPGAS medium, 16 h
Description: Inhibition of P. aeruginosa pyocyanin production by compounds was determined photometrically as described before. In short, an overnight culture of PA14 in PPGAS medium was washed, diluted in medium to a start OD600 of 0.02, and incubated for 16 h (37° C., 200 rpm, relative humidity 75%) in the presence of test compounds. Then, cultures were extracted with chloroform and re-extracted with 0.2 M HCl. Protonated red colored pyocyanin was determined by measuring OD520 and normalizing to OD600.
pIC50: −log10 of the molar value.
property label: pIC50

mol smiles | experimental value
FC(F)(F)c1cc(SCc2nc3cc(Cc4ccccc4)ccc3[nH]2)ccn1 | 6.30 to 6.70
Fc1cccc(Nc2cccc(-n3cc(CNc4ccnc(C(F)(F)F)c4)nn3)c2)c1 | 6.70 to 7.00
Cc1ccccc1Nc1ccc2[nH]c(CSc3ccnc(C(F)(F)F)c3)nc2c1 | 6.70 to 7.00
Nc1cc(SCc2nc3cc(Nc4cccnc4)ccc3[nH]2)cc(C(F)(F)F)n1 | 6.30 to 6.70

IN: Identify measured pIC50 obtained with P. aeruginosa pyocyanin production for "O=[N+]([O-])c1cccc(-c2ncc(CNc3cc(Cl)nc(C(F)(F)F)c3)cn2)c1" .
OUT: 6.30 to 6.70

IN: Identify measured pIC50 obtained with P. aeruginosa pyocyanin production for "Fc1cccc(Nc2ccc3[nH]c(COc4ccnc(C(F)(F)F)c4)nc3c2)c1" .
OUT: 6.30 to 6.70
